# MEASUREMENT DESCRIPTION: soluble on expression in E. coli; label from the status in PepcDB or PDB records
MEASURED ENDPOINT: soluble on expression in E. coli

[
  {
    "SEQUENCE": "MGSSHHHHHHGGTGENLYFQGGSGSRFYTAKEVREHAFHDDAYVSLNGKVLDLTPLIAAYKEMPKFAHLAKPLVQVAGTDISHWWDAEANDLRSCVDVNSGMRTYAMPLGRVPHMPTIYPDSNIDLNYDIPWWKDPQYIIGALTSRTRRIRIVNTLTGDETTLDVCAEETLEELLRERYLSINAHARSYTWVRLDPDPRELDMSRTLEDNGIHDEADSFEDLGLNADYYIPAIHLYYNDDLTEA",
    "ASSAY VALUE": "soluble"
  },
  {
    "SEQUENCE": "MSLTDVSRILKEARDQGRLTTLDYANLIFDDFMELHGDRHFSDDGAIVGGLAYLAGQPVTVIGIQKGKNLQDNLARNFGQPNPEGYRKALRLMKQAEKFGRPVVTFINTAGAYPGVGAEERGQGEAIAKNLMEMSDLKVPIIAIIIGEGGSGGALALAVADQVWMLENTMYAVLSPEGFASILWKDGSRATEAAELMKITAGELYKMGIVDRIIPEHGYFSSEIVDIIKANLIEQITSLQAKPLDQLLDERYQRFRKYEGHHHHHH",
    "ASSAY VALUE": "not soluble"
  },
  {
    "SEQUENCE": "MAMKDKLKNFFSMEDEEYEYEYIETERESHVEHEQKEKPAYNGNKPAGKQNVVSLQSVQKSSKVVLSEPRVYAEAQEIADHLKNRRADVVNLQRIQHDQAKRIVDFLSGTVYAIGGDIQRIGSDIFLCTPDNVDVSGTISELISEDEHQRWLEHHHHHH",
    "ASSAY VALUE": "not soluble"
  },
  {
    "SEQUENCE": "MIDVHCHLVDNKFKEDLDDVIGHAHATGIQKMINFPEFESQFEKSIGISKKWPGSVYTGIGIHPIQKRGKSAKMKHISKMEQFFVEHERDIICVGECGLDHTISQFKLTTEDFEEQETVFKWQIDLAKHFEKPLNVHSRSAARRTIEILLECHVAPDQVVLHAFDGTPGDLKLGLEAGYLFSIPPSFGKSEETTQLIESIPLSQLLLETDSPALGPEKGCKNVPANLRISAEIVAKIKKLEIDDIISATSTNANRIFKF",
    "ASSAY VALUE": "soluble"
  },
  {
    "SEQUENCE": "MGSDKIHHHHHHMLNNYMSILSLNENDNDIKSLTKARPLASIPIAGRYRIIDFILSNLVNSGVKNIGILTQCKSRSLLDHLGSGKPWDLDRKLNGLFIFNFSGITSTLSDIEMLKSNMEYLYRSTQEKVILSSSAVICNIDFQRAAEFHEKSGKDITLIYKRTNNGKRKFLNCSVLNMDKNNNVISIGKNTGLDDVQNISLGMFIMNKKLLINILNNCIRTGFSLSLKQCIRKHMNNFTVNAYEFNGYAEYIDSVKSYYKVNMDMLNLDINREVFFKNGLIYTKVKDEAPTKYFNDSEVCNSLIANGSLIHGQIENSIIGRRVTISKGARIKNCVIMQNCTIKENVDLTNVIVDKNVIIDENTVLKGGKEFPLVIEKKSIYSEV",
    "ASSAY VALUE": "not soluble"
  }
]

Consider the additional sequence presented here.
Ask | Would you kindly share the measured soluble on expression in E. coli for "MKQVKITTTSDLINGGCNACPNVKCTNYLVHVEDETIALETLTVADLVTLLALKEGFRQKLVMEMFEEYTVFERETHQVVFKEEETRILFQSKKQTIQSTLLCKEPQQVFQETQQILHQLFELEPFEFELVEETDE" ?
Reply | not soluble
